ASSAY_PROTOCOL: recombinant barcode read abundance after kanamycin selection (control-corrected) (log10(CPM+1)); higher = more efficient recombination; sequences stand for … in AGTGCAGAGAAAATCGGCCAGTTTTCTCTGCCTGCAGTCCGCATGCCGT…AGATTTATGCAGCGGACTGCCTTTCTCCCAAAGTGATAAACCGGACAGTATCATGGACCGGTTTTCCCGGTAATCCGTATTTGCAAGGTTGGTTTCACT; site = the 11-nt target
QUANTITY: recombinant barcode read abundance (log10)
Reply with the value as a number alone.

As a guide, the following entries are already answered.
>>> print(df.to_string())
                           sequence_content  measurement
0  CATTCTGCTTGGGTTCTAACCTGTTGCCT (site CACTCTGCTAG)       0.0741
1  TCTTGTTCTTGGGTTCTAACCTGTTGCCT (site ACTTGTTCTAG)        0.383

Inquiry: Name the recorded recombinant barcode read abundance (log10) for TCCGTCTCTTGGGTTCTAACCTGTTGCCA (site TCCGTCTCTTG) .
Reply text: 0.692

Inquiry: Name the recorded recombinant barcode read abundance (log10) for GGTAAGACTTGGGTTCTAACCTGTTGCCT (site GGCAAGACTAG) .
Reply text: 0.318

Inquiry: Name the recorded recombinant barcode read abundance (log10) for CGGCTGACTTGGGTTCTAACCTGTTGCCT (site CGGCTCACTAG) .
Reply text: 0.446

Inquiry: Name the recorded recombinant barcode read abundance (log10) for ACTGATACTTGGGTTCTAACCTGTTGCCT (site ACTGATTCTAG) .
Reply text: 0.241

Inquiry: Name the recorded recombinant barcode read abundance (log10) for AAGTCGTCTTGGGTTCTAACCTGTTGCTA (site AAGTCGTCTTA) .
Reply text: 0.857

* * *

ASSAY_PROTOCOL: recombinant barcode read abundance after kanamycin selection (control-corrected) (log10(CPM+1)); higher = more efficient recombination; sequences stand for … in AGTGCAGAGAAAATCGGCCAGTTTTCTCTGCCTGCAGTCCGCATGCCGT…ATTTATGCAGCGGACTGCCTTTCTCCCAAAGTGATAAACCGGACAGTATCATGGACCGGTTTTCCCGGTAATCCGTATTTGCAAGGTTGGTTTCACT; site = the 11-nt target
Catalogue of recombinant barcode read abundance (log10) readings, one per entry.
Reply with the value as a number alone.

As a guide, the following entries are already answered.
>>> df
                           sequence_content  measurement
0  GGGCGGACTTGGGTTCTAACCTGTTGCGGAC [GGGCGGACTCC_LTGcore_CT_RTGcore_GT] (site GGGCGGACTCC) (LTG core: CT, RTG core: GT)        0.135
1  AGGCGGTAATGGGTTCTAACCTGTTGCTTAG [AGGCGGTCTAA_LTGcore_AA_RTGcore_CT] (site AGGCGGTCTAA) (LTG core: AA, RTG core: CT)        0.371
2  TGATACCAGTGGGTTCTAACCTGTTGCGTCT [TGATACCCTAC_LTGcore_AG_RTGcore_AG] (site TGATACCCTAC) (LTG core: AG, RTG core: AG)        0.256
3  GGGCGTGGCTGGGTTCTAACCTGTTGCCTAG [GGGCGTGCTAG_LTGcore_GC_RTGcore_CT] (site GGGCGTGCTAG) (LTG core: GC, RTG core: CT)        0.276

Please look at the following sequence next.
Inquiry: Name the recorded recombinant barcode read abundance (log10) for GAGTCCTCTTGGGTTCTAACCTGTTGCCTCG [GAGTCCTCTAG_LTGcore_CT_RTGcore_CG] (site GAGTCCTCTAG) (LTG core: CT, RTG core: CG) .
Reply text: 1.19

* * *

Catalogue of recombinant barcode read abundance (log10) readings, one per entry.
ASSAY_PROTOCOL: recombinant barcode read abundance after kanamycin selection (control-corrected) (log10(CPM+1)); higher = more efficient recombination; sequences stand for … in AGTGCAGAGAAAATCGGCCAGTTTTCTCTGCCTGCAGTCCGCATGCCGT…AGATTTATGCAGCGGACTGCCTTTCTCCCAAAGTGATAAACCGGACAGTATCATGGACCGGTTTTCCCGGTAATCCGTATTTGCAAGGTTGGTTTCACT; site = the 11-nt target
Reply with the value as a number alone.

As a guide, the following entries are already answered.
                           sequence_content  measurement
0  TAAGTACCTTGGGTTCTAACCTGTTGCCT (site AAAGTACCTAG)         1.12
1  ACCCAGCCTTGGGTTCTAACCTGTTGCAG (site TGAGTCTCTTG)       0.0203
2  AGGTCCTCTTGGGTTCTAACCTGTTGCGT (site AGGTCCTCTAG)         0.73
3  CTGTGGACTTGGGTTCTAACCTGTTGCAG (site CTCTGGACTGT)            0
4  CTCTACACTTGGGTTCTAACCTGTTGCCA (site CTCTATACTTG)       0.0697
5  GACCTACCTTGGGTTCTAACCTGTTGCCT (site GACCTACCTAG)          1.8
6  GGTAAGACTTGGGTTCTAACCTGTTGCCT (site GGAAAGACTAG)         0.31
7  GTAACCTCTTGGGTTCTAACCTGTTGCCC (site GTAACCTCTCG)        0.179

Inquiry: Name the recorded recombinant barcode read abundance (log10) for TTGACATCTTGGGTTCTAACCTGTTGCCT (site TTGAAATCTAG) .
Reply text: 0.179

Inquiry: Name the recorded recombinant barcode read abundance (log10) for GGAAGCCCTTGGGTTCTAACCTGTTGCTA (site AACTAAGCTAG) .
Reply text: 0.0242

Inquiry: Name the recorded recombinant barcode read abundance (log10) for TTGAGATCTTGGGTTCTAACCTGTTGCCT (site TTGAAATCTAG) .
Reply text: 0.0577

Inquiry: Name the recorded recombinant barcode read abundance (log10) for CGTGTAACTTGGGTTCTAACCTGTTGCCT (site CGTGTAACTAG) .
Reply text: 0.332

Inquiry: Name the recorded recombinant barcode read abundance (log10) for TAGCTCCCTTGGGTTCTAACCTGTTGCCG (site TAGCTCCCTTG) .
Reply text: 0.379

Inquiry: Name the recorded recombinant barcode read abundance (log10) for GACATATCTTGGGTTCTAACCTGTTGCCA (site GACATATCTCA) .
Reply text: 0.337

* * *

ASSAY_PROTOCOL: recombinant barcode read abundance after kanamycin selection (control-corrected) (log10(CPM+1)); higher = more efficient recombination; sequences stand for … in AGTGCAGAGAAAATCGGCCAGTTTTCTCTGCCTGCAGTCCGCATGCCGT…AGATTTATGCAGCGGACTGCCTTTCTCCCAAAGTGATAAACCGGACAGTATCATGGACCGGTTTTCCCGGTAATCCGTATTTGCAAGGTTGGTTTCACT; site = the 11-nt target
Catalogue of recombinant barcode read abundance (log10) readings, one per entry.
Reply with the value as a number alone.

In [3]: df
Out[3]:
                           sequence_content  measurement
0  CGATAGCCTTGGGTTCTAACCTGTTGCCT (site GGATAGCCTAG)        0.132
1  ACCAAGTCTTGGGTTCTAACCTGTTGCGC (site ACCAAGTCTGC)         1.74
2  ATTTGGACTTGGGTTCTAACCTGTTGCCT (site ATTTGTACTAG)       0.0943
3  GTGAAAGCTTGGGTTCTAACCTGTTGCCA (site GTGGAAGCTTG)       0.0113
4  TCGAAGACTTGGGTTCTAACCTGTTGCCA (site CCGAAGACTAG)         0.14

Inquiry: Name the recorded recombinant barcode read abundance (log10) for TGGTTACCTTGGGTTCTAACCTGTTGCCT (site TGTTTAACTAG) .
Reply text: 0.0377

Inquiry: Name the recorded recombinant barcode read abundance (log10) for TACATCCCTTGGGTTCTAACCTGTTGCCC (site TACATCCCTCG) .
Reply text: 0.111

Inquiry: Name the recorded recombinant barcode read abundance (log10) for TCGAAACCTTGGGTTCTAACCTGTTGCCT (site TCGAATCCTAG) .
Reply text: 0.0362

Inquiry: Name the recorded recombinant barcode read abundance (log10) for GAGTCTACTTGGGTTCTAACCTGTTGCCG (site GAGTCTACTCG) .
Reply text: 0.562

Inquiry: Name the recorded recombinant barcode read abundance (log10) for TCCAGTACTTGGGTTCTAACCTGTTGCTT (site TCCGGTACTAA) .
Reply text: 0.0788

* * *

ASSAY_PROTOCOL: recombinant barcode read abundance after kanamycin selection (control-corrected) (log10(CPM+1)); higher = more efficient recombination; sequences stand for … in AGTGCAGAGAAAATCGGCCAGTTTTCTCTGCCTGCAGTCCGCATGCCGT…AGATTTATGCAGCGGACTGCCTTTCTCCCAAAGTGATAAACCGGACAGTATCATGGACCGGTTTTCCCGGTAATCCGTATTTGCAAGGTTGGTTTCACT; site = the 11-nt target
Entry flag: 1.0 if recombinant barcode read abundance (log10) reaches 0.4; 0.0 if it does not.

>>> df
                           sequence_content  category
0  ACCCAGCCTTGGGTTCTAACCTGTTGCTT (site ACCCAGCCTAC)       0.0
1  CGCGCTCCTTGGGTTCTAACCTGTTGCCT (site CGCGCTCCTAG)       0.0
2  GAGCAGGCTTGGGTTCTAACCTGTTGCTT (site GAGCAGGCTAA)       1.0

Now, please, on to the next sequence.
Inquiry: Item TCCCGAGCTTGGGTTCTAACCTGTTGCCT (site TCCCGAGCTAG) with recombinant barcode read abundance (log10) of 0.4 or above?
Reply text: 1.0
